Target entity: HLA-B*58:01
Assay info: IEDB peptide-MHC binding, purified MHC/competitive/fluorescence; filed as Kd, often an IC50 or EC50 that approximates it; bounds were set here for any values at or beyond the usual limits of such assays
Settings: source organism: Salmonella enterica subsp. enterica serovar Typhi
Measured quantity: Kd (nM)
Give a bare numeral; the unit nM is implied.

Enquiry: Requested read-out: Kd. Entry: ITLKVFAGY
Return: 11.6

###

Please go through the items and note down their pKd.
Target entity: HLA-B*40:01
Assay info: IEDB peptide-MHC binding, purified MHC/competitive/radioactivity; filed as Kd, often an IC50 or EC50 that approximates it; bounds were set here for any values at or beyond the usual limits of such assays
Settings: source organism: Dengue virus 3 Martinique/1243/1999
Scale for pKd: -log10 of concentration given in mol/L; no unit attached.

Enquiry: Dear colleague, I am looking for the recorded pKd of the following sequence: IENSTANVSL
Return: 8.22

Enquiry: Request the reported pKd associated with RQMEGEGVL
Return: 7.36

###

Target entity: HLA-B*15:02
Assay info: IEDB peptide-MHC binding, purified MHC/competitive/fluorescence; filed as Kd, often an IC50 or EC50 that approximates it; bounds were set here for any values at or beyond the usual limits of such assays
Settings: source organism: Listeria monocytogenes serotype 4b str. H7858
Measured quantity: Kd

Enquiry: Using the record for FLMYPNNIF , report its Kd.
Return: 5.7 nM

###

Target entity: HLA-B*18:01
Assay info: IEDB peptide-MHC binding, purified MHC/competitive/fluorescence; filed as Kd, often an IC50 or EC50 that approximates it; bounds were set here for any values at or beyond the usual limits of such assays
Settings: source organism: Campylobacter jejuni subsp. jejuni NCTC 11168 = ATCC 700819
Measured quantity: Kd

Enquiry: State the recorded Kd for this entry: FTFERSKIK
Return: ≥ 20 µM

###

Target entity: HLA-B*08:01
Assay info: IEDB peptide-MHC binding, purified MHC/competitive/fluorescence; filed as Kd, often an IC50 or EC50 that approximates it; bounds were set here for any values at or beyond the usual limits of such assays
Settings: source organism: Brucella melitensis bv. 1 str. 16M
Measured quantity: Kd

Enquiry: Lab note: need Kd for TTRAVNMEV on HLA-B*08:01, anyone have it?
Return: ≥ 5 µM

###

Target entity: HLA-B*15:42
Assay info: IEDB peptide-MHC binding, purified MHC/competitive/fluorescence; filed as Kd, often an IC50 or EC50 that approximates it; bounds were set here for any values at or beyond the usual limits of such assays
Settings: source organism: Mammarenavirus lassaense
pKd: −log10 of the molar value.
Measured quantity: pKd

Enquiry: Under HLA-B*15:42: pKd value of SERFINYAI ?
Return: ≤ 5.30

###

Target entity: HLA-A*24:03
Assay info: IEDB peptide-MHC binding, purified MHC/direct/fluorescence; filed as Kd, often an IC50 or EC50 that approximates it; bounds were set here for any values at or beyond the usual limits of such assays
Settings: source organism: Escherichia coli
Measured quantity: Kd

Enquiry: May I ask what Kd has been recorded for NMERKLNLS ?
Return: ≥ 20 µM

Enquiry: What value of Kd has been recorded for this entry: LMQWWSDYV
Return: ≥ 20 µM

###

Target entity: HLA-B*40:01
Assay info: IEDB peptide-MHC binding, purified MHC/competitive/radioactivity; filed as Kd, often an IC50 or EC50 that approximates it; bounds were set here for any values at or beyond the usual limits of such assays
Settings: source organism: Dengue virus 1 Brazil/97-11/1997
Measured quantity: Kd (nM)
Note: unit nM is implicit; provide only the numeric part.

Enquiry: I have this sequence here, VERAVLDDGI , and I need its recorded Kd.
Return: 1680

Enquiry: Given the sequence LEIGKLPQHL , what is its reported Kd?
Return: 145

###

Target entity: HLA-A*02:03
Assay info: IEDB peptide-MHC binding, purified MHC/competitive/radioactivity; filed as Kd, often an IC50 or EC50 that approximates it; bounds were set here for any values at or beyond the usual limits of such assays
Settings: source organism: Lassa virus Josiah
For each record, write down the corresponding Kd.
Record the result as a number with its unit.

Enquiry: Entry MSIQLINKAV : reported Kd = ?
Return: 1790 nM

Enquiry: Could you share which Kd value was measured for VLIALSVLAV ?
Return: 12.2 nM

###

Target entity: HLA-A*26:03
Assay info: IEDB peptide-MHC binding, purified MHC/competitive/fluorescence; filed as Kd, often an IC50 or EC50 that approximates it; bounds were set here for any values at or beyond the usual limits of such assays
Settings: source organism: Human immunodeficiency virus 1
Measured quantity: Kd

Enquiry: Item GTEEIKSLY has what recorded Kd?
Return: ≥ 20 µM

###

Exercise: for every item that follows, state its recorded Kd.
Target entity: HLA-A*01:01
Assay info: IEDB peptide-MHC binding, purified MHC/competitive/radioactivity; filed as Kd, often an IC50 or EC50 that approximates it; bounds were set here for any values at or beyond the usual limits of such assays
Settings: source organism: Mammarenavirus whitewaterense
Express your answer in µM, writing the number without its unit.

Enquiry: Quick one: Kd of EGCPKPHRL ?
Return: 13.9

Enquiry: Which value of Kd has been reported for DLGLLYTAKY in the records?
Return: 13.7

###

Target entity: HLA-B*51:01
Assay info: IEDB peptide-MHC binding, purified MHC/competitive/radioactivity; filed as Kd, often an IC50 or EC50 that approximates it; bounds were set here for any values at or beyond the usual limits of such assays
Settings: source organism: Mammarenavirus guanaritoense
Measured quantity: Kd (nM)
Quick note: give the figure in nM, leave out the unit.

Enquiry: Name the reported Kd value associated with the sequence CPMCCSKIL
Return: 182

###

Target entity: HLA-A*02:06
Assay info: IEDB peptide-MHC binding, purified MHC/competitive/radioactivity; filed as Kd, often an IC50 or EC50 that approximates it; bounds were set here for any values at or beyond the usual limits of such assays
Settings: source organism: Vaccinia virus WR
Record form. Attribute: log10(Kd). Fill in for each entry.
Values reflect log10 of reported Kd (nM).

Enquiry: // returns reported log10(Kd) for input TQVKELGIAI
Return: 0.59

Enquiry: What log10(Kd) value was documented for this sequence, KVYNGIFVDT ?
Return: 4.21

Enquiry: # log10(Kd) lookup, item ILRNYLRLYI
Return: 1.81

Enquiry: Reported log10(Kd) for RIKSVLDII : what is it?
Return: 3.32

Enquiry: Entry VQYRILPMII has what log10(Kd)?
Return: 2.60

Enquiry: Look at this sequence and give its reported log10(Kd). LMIFISSFLL
Return: 1.88

Enquiry: I would be grateful if you could share the reported log10(Kd) for ITPNNLNKI .
Return: 2.61

Enquiry: Reported log10(Kd) for VMYAFTTPLI : what is it?
Return: 1.06

Enquiry: GET /values?readout=log10(Kd)&item= VVIVENDNVI
Return: 4.03

Enquiry: Fill blank: measured log10(Kd) of the sequence TMSIYIAVA is ____.
Return: 2.90

Enquiry: For the sequence shown here, FTSDYPFYV , give the reported log10(Kd).
Return: 0.55

Enquiry: Quick check: log10(Kd) of TIAVSVYGA ?
Return: 1.99

Enquiry: Would you mind telling me what log10(Kd) value was observed for NAVTTNNLL ?
Return: 2.31

Enquiry: Can you share its log10(Kd)? I mean this sequence: LALTDVEKRI
Return: 3.38

Enquiry: Data request, read-out log10(Kd), for KLISEKETL
Return: 3.88

Enquiry: Find the recorded log10(Kd) belonging to MLTNAISSRV and report it.
Return: 2.35

Enquiry: I am curious: what log10(Kd) value has been reported for MMQNDYGGM ?
Return: 3.22

Enquiry: Tell me the measured log10(Kd) of AAIDRQVSV , please.
Return: 1.17

Enquiry: Please give the measured log10(Kd) for this sequence: SASDMQKFTI
Return: 3.63

Enquiry: Which log10(Kd) is listed for VLTSVDIETA ?
Return: 3.15

Enquiry: # query: log10(Kd) of entry KLRSSPPIPM
Return: 3.34

Enquiry: Looking for the measured log10(Kd) of DTDIVNNFIT , can you help?
Return: 3.36

Enquiry: log10(Kd) for RLPSETFPNV ?
Return: -0.23

Enquiry: log10(Kd) lookup needed for TLPELNLSL , thanks.
Return: 2.90

Enquiry: Consider the sequence YLLFNHFSV and give its measured log10(Kd).
Return: -0.14

Enquiry: Can you look up the measured log10(Kd) of KIYTLIYRQL for me?
Return: 2.96

Enquiry: Please give the measured log10(Kd) for this sequence: ATLNTLITLI
Return: 2.30

Enquiry: Looking for the measured log10(Kd) of SVDVDIYDA , can you help?
Return: 2.98

Enquiry: Can you look up the measured log10(Kd) of NIEIMDKEQL for me?
Return: 3.75

Enquiry: # query: log10(Kd) of entry LQISRVNDL
Return: 2.36

Enquiry: Param item = IVDKFGKNHI ; retrieve measured log10(Kd).
Return: 3.92

Enquiry: Which log10(Kd) is listed for FVKKMLPKII ?
Return: 3.83

Enquiry: Which log10(Kd) value belongs to IVAAVIIMAI ?
Return: 3.65

Enquiry: Could you share which log10(Kd) value was measured for NLYISDYKM ?
Return: 4.04

Enquiry: Reported log10(Kd) for IVTFINDYA : what is it?
Return: 3.06

Enquiry: Entry DINVIGLIV has what log10(Kd)?
Return: 3.74

Enquiry: Reported log10(Kd) for WISDNTHIYL : what is it?
Return: 0.25

Enquiry: Which value of log10(Kd) has been reported for CIVQSVLRDI in the records?
Return: 2.93

Enquiry: Report log10(Kd) for LVKESMASL please.
Return: 2.13
